// reported EC50 for each item listed
Molecular target: S1P1 (EDG-1) (Homo sapiens)
Construct: c-myc (N); homogenized membranes
Sequence (P21453 whole entry): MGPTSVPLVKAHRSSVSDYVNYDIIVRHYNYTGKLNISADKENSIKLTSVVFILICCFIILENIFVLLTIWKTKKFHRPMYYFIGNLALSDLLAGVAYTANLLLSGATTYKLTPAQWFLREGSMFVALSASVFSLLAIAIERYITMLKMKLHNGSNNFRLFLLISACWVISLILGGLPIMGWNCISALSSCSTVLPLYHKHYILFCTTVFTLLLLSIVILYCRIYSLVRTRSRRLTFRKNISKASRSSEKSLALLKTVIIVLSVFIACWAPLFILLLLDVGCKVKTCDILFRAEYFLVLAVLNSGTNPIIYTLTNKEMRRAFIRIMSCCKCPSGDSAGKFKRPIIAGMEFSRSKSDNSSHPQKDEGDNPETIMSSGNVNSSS
Experiment: GPCR activation assay measuring GTP [γ-35S] binding to membranes from CHO cells expressing human EDG receptors (S1P1)
Settings: CHO cell membranes expressing human EDG-1, read-out: S1P-1 EC50
Give the value in nM but do not write nM after it.

Example cases with answers are listed next.
compound | EC50 / nM
COc1ccc2cc(C(=O)Nc3ccc([C@H]4CCCN4)c(F)c3)c(=O)oc2c1C [Example 72] | 1.8
CCCc1c(OC)ccc2cc(C(=O)Nc3ccc(C4CNCCN4)cc3)c(=O)oc12 (racemic) [Example 43] | 0.1
COc1ccc2cc(C(=O)Nc3cccc([C@H]4COCCN4)c3)c(=O)oc2c1OC(C)C [Example 96] | 2.8

For the compound shown here, CCCc1c(OC)ccc2cc(C(=O)Nc3ccc([C@H]4COCCN4)cc3)c(=O)oc12 [Example 27] , give the reported EC50. 0.2
